- TESTED ON: PI3K α (Homo sapiens, UniProt P42336)
- Construct: Full length p110 subunits of PI3K α, β and δ, N-terminally labeled with polyHis tag; polyHis (N)
- Sequence (P42336 whole entry, species assumed): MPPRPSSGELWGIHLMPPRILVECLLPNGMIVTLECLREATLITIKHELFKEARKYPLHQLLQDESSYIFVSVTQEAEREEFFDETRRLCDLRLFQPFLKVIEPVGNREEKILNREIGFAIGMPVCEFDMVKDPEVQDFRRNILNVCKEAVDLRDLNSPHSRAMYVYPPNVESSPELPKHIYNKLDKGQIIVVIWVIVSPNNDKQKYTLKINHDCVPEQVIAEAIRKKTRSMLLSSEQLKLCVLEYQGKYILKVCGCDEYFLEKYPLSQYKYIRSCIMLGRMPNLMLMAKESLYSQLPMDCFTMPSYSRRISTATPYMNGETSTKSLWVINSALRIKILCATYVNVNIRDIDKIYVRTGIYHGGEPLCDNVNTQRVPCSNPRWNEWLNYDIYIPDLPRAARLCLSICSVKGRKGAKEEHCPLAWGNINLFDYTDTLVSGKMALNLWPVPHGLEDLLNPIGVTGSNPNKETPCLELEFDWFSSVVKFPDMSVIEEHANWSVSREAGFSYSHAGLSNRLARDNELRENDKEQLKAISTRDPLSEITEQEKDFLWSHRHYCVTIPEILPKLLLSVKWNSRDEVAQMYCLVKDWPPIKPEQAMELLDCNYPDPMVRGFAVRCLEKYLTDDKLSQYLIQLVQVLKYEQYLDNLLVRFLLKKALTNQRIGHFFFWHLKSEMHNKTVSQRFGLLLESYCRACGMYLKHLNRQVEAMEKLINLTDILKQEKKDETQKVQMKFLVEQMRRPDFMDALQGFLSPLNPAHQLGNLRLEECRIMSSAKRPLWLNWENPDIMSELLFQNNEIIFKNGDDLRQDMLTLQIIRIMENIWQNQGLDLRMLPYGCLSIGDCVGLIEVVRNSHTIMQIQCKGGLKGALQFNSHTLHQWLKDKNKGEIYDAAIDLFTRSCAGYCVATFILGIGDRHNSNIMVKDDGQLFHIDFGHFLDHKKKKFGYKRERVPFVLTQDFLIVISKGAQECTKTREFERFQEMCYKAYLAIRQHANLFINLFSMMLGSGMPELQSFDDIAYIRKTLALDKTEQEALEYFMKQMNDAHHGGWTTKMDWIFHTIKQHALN
- Sequence (P27986 whole entry partner, species assumed): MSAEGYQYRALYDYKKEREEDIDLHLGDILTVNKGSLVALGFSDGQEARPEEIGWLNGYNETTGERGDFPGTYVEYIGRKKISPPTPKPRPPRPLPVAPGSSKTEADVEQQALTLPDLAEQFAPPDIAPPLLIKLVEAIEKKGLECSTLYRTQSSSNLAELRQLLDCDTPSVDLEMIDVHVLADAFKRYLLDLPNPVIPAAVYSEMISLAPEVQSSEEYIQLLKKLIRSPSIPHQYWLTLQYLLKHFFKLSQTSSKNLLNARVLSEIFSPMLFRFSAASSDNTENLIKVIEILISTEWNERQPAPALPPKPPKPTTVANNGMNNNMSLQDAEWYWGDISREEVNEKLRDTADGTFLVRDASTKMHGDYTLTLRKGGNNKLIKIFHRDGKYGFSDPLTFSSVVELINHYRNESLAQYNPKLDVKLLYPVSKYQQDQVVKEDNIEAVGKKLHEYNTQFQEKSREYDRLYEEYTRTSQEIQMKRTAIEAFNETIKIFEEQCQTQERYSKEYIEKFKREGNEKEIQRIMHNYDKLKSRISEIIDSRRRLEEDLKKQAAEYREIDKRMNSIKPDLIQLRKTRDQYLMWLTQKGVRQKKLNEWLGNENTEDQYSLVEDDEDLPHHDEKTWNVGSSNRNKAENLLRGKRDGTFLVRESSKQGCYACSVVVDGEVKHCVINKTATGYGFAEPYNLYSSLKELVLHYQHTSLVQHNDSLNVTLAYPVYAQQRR
- ASSAY METHOD TEXT: In vitro PI3 kinase enzyme assay (alpha), ATP loss, bioluminescence
- MEASUREMENT SETUP: read-out: PI3Kα ATP loss IC50
RESULT TYPE: IC50 (nM)

- MOLECULE: "Nc1nc2ccc(-c3cnc(Cl)c(NS(=O)(=O)c4ccc(Cl)cc4F)c3)cc2s1"
  U: "nM"
  ASSAY RESULT: 13.6
- MOLECULE: "CC(=O)Nc1nc2ccc(-c3cnc(C)c(NS(=O)(=O)c4cccc(C(F)(F)F)c4)c3)cc2s1"
  U: "nM"
  ASSAY RESULT: 6.4
- MOLECULE: "CC(=O)Nc1nc2ccc(-c3cnc(Cl)c(N(C)C)c3)cc2s1"
  U: "nM"
  ASSAY RESULT: 19.9
- MOLECULE: "CC(=O)Nc1nc2ccc(-c3cnc(Cl)c(NS(=O)(=O)c4ccc(C(C)O)cc4)c3)cc2s1 (single isomer, unassigned) [Example 258]"
  U: "nM"
  ASSAY RESULT: 7.6

(a) CC(=O)Nc1nc2ccc(-c3ccnc(OCC4CCN(C)CC4)n3)cc2s1
(b) CC(=O)Nc1nc2ccc(-c3ccnc(N(C)S(=O)(=O)c4ccc5ncccc5c4)n3)cc2s1
(c) CC(=O)Nc1nc2ccc(-c3cnc(C)c(NS(=O)(=O)c4ccc(C(C)(C)C)cc4)c3)cc2s1
Please order the records by their reported IC50, lowest number first. Your reply should list the labels following the order given in the request.
c, b, a
(c: 7 nM, b: 354 nM, a: 10700 nM)

(1) CC(=O)Nc1nc2ccc(-c3cccc4sc(=O)[nH]c34)cc2s1
(2) COc1cccc(S(=O)(=O)Nc2nccc(-c3ccc4nc(NC(C)=O)sc4c3)n2)c1
(3) CC(=O)Nc1nc2ccc(-c3cncc(OCCN4CCOC4=O)c3)cc2s1
(4) CC(=O)Nc1nc2ccc(-c3cnc(C)c(N)c3)cc2s1
Rank entries according to their IC50, from the largest number down. Write out the labels following the order that was asked for.
1, 3, 4, 2

###

- TESTED ON: PI3K β (Homo sapiens)
- Construct: Full length p110 subunits of PI3K α, β and δ, N-terminally labeled with polyHis tag; polyHis (N)
- Sequence (P42338 whole entry): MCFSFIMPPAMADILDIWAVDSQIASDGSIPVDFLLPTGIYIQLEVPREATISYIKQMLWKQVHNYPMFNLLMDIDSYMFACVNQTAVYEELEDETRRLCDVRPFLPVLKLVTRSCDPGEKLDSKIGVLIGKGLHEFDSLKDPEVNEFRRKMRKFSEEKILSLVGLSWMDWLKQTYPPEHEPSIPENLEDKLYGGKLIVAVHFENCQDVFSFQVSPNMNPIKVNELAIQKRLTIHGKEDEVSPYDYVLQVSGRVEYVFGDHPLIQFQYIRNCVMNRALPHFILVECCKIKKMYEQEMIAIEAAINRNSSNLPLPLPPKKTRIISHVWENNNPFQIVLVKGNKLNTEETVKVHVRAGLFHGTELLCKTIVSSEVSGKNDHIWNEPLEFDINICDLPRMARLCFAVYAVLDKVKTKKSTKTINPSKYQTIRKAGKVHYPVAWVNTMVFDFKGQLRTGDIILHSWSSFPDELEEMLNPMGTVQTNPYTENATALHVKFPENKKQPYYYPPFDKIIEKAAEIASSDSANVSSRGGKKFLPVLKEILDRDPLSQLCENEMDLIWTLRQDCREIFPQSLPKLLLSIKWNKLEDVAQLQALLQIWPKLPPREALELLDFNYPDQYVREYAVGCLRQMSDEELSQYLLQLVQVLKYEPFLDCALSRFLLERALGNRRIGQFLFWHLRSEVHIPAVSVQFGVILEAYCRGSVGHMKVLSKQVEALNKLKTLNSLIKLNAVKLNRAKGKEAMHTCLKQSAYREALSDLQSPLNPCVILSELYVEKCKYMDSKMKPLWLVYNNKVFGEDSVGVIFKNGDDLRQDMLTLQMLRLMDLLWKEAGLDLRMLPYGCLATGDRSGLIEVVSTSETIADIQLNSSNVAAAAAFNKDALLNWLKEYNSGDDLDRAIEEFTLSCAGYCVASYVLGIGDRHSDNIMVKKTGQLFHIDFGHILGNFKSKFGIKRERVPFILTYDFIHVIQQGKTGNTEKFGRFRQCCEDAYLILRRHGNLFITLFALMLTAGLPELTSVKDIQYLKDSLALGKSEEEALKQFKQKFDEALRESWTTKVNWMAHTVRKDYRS
- Sequence (P27986 whole entry partner): as the sequence (P27986 whole entry partner, species assumed) above
- ASSAY METHOD TEXT: In vitro PI3 kinase enzyme assay (beta), ATP loss, bioluminescence
- MEASUREMENT SETUP: read-out: PI3Kβ ATP loss IC50
pIC50: −log10 of the molar value.
RESULT TYPE: pIC50

Solved entries (count: 5):
- MOLECULE: "COc1cccc(S(=O)(=O)Nc2nccc(-c3ccc4nc(NC(C)=O)sc4c3)n2)c1"
  ASSAY RESULT: 7.08
- MOLECULE: "COc1ccc(S(=O)(=O)c2ncc(-c3ccc4nc(NC(C)=O)sc4c3)s2)cc1"
  ASSAY RESULT: 4.51
- MOLECULE: "O=S(=O)(Nc1cc(-c2ccc3ncoc3c2)cnc1Cl)c1ccc(F)cc1"
  ASSAY RESULT: 7.46
- MOLECULE: "COc1ccc(S(=O)(=O)Nc2cccc(-c3ccc4nc(NC(C)=O)sc4c3)c2)cc1"
  ASSAY RESULT: 6.38
- MOLECULE: "CCOc1cc(-c2ccc3nc(NC(C)=O)sc3c2)cnc1Cl"
  ASSAY RESULT: 5.42

(1) CC(=O)Nc1nc2ccc(-c3cnc(C)c(NS(=O)(=O)c4cccc(OC(F)F)c4)c3)cc2s1
(2) CC(=O)Nc1nc2ccc(-c3cnc(Cl)c(NS(=O)(=O)c4ccsc4)c3)cc2s1
(3) COc1ccc(Sc2nccc(-c3ccc4nc(NC(C)=O)sc4c3)n2)c(C)c1
(4) CC(=O)Nc1nc2ccc(-c3ccnc(Sc4ccccc4C)n3)cc2s1
(5) CC(=O)Nc1nc2ccc(-c3cncc(OCCN4CCCCC4)c3)cc2s1
Rank order required: pIC50, descending. Your reply should list the labels following the order given in the request.
1, 2, 3, 4, 5

(a) CC(=O)Nc1nc2ccc(-c3cnc(Cl)c(NS(=O)(=O)c4ccccc4)c3)cc2s1
(b) CC(=O)Nc1nc2ccc(-c3ccnc(Sc4cccc(C)c4)n3)cc2s1
Name the one with the greater pIC50 value, either a or b as given. Select an item and report its label.
a
(a: 7.84, b: 5.97)

(1) CC(=O)Nc1nc2ccc(-c3cncc(OCCN4CCC(F)(F)C4=O)c3)cc2s1
(2) CC(=O)Nc1nc2ccc(-c3cncc(OCCN4CCC(C)C4=O)c3)cc2s1 (stereo not drawn)
Param metric = pIC50; output whichever of 1 , 2 has the minimum value. Please reply using the label of the selected record.
2

(A) CC(=O)Nc1nc2ccc(-c3ccnc(N(C)S(=O)(=O)c4cccs4)n3)cc2s1
(B) CC(=O)Nc1nc2ccc(-c3cnc(Cl)c(OC(C)=O)c3)cc2s1
# return whichever of A and B has the smaller pIC50 Refer to your chosen item by its label in the answer.
A

###

- TESTED ON: PI3K β (Homo sapiens)
- Construct: Full length p110 subunits of PI3K α, β and δ, N-terminally labeled with polyHis tag; polyHis (N)
- ASSAY METHOD TEXT: In vitro PI3 kinase enzyme assay (beta), ATP loss, bioluminescence
- MEASUREMENT SETUP: read-out: PI3Kβ ATP loss IC50
RESULT TYPE: IC50 (µM)

Some entries whose results are on file:
- COMPOUND: "CN(C)CC(=O)Nc1nc2ccc(-c3cnc(Cl)c(N(C)C)c3)cc2s1 [Example 275]"
  U: "µM"
  IC50: 2.9
- COMPOUND: "CC(=O)Nc1nc2ccc(-c3cccc(N(C)S(=O)(=O)c4ccccc4)n3)cc2s1 [Example 75]"
  U: "µM"
  IC50: 0.338
- COMPOUND: "COc1ccc(S(=O)(=O)c2cncc(-c3ccc4nc(NC(C)=O)sc4c3)n2)cc1 [Example 120]"
  U: "µM"
  IC50: 1.07
- COMPOUND: "CC(=O)Nc1nc2ccc(-c3cnc(Cl)c(O[C@H]4CCOC4)c3)cc2s1 [Example 236]"
  U: "µM"
  IC50: 1.37

(P) Cc1cc(F)ccc1S(=O)(=O)Nc1cc(-c2ccc3nc(N)sc3c2)cnc1Cl [Example 312]
(Q) CC(=O)Nc1nc2ccc(-c3ccnc(Sc4ccc(C)c(C)c4)n3)cc2s1 [Example 128]
Response body: label of entry with the larger IC50; valid values P , Q . Pick one and reply with its label.
Q
(Q: 0.522 µM, P: 0.0249 µM)

(a) CC(=O)Nc1nc2ccc(-c3ccnc(SCc4ccccc4C)n3)cc2s1 [Example 37]
(b) COCCOCOc1cc(-c2ccc3nc(NC(C)=O)sc3c2)cnc1Cl [Example 292]
Quick one: lower IC50, a or b ? Reply with the label of the item you choose.
b

###

- TESTED ON: PI3K α (Homo sapiens, UniProt P42336)
- Construct: Full length p110 subunits of PI3K α, β and δ, N-terminally labeled with polyHis tag; polyHis (N)
- ASSAY METHOD TEXT: In vitro PI3 kinase enzyme assay (alpha), ATP loss, bioluminescence
- MEASUREMENT SETUP: read-out: PI3Kα ATP loss IC50
RESULT TYPE: IC50 (µM)

- MOLECULE: "COc1ccc(S(=O)(=O)N(C)c2nccc(-c3ccc4nc(NC(C)=O)sc4c3)n2)cc1 [Example 88]"
  RESULT TYPE: "IC50"
  ASSAY RESULT: 0.0393

(1) CC(=O)Nc1nc2ccc(-c3ccnc(N4CCCC4c4ccccc4C)n3)cc2s1 (racemic) [Example 262]
(2) CN(C)c1cc(-c2ccc3nc(N)sc3c2)cnc1Cl [Example 274]
(3) CC(=O)Nc1nc2ccc(-c3cncc(N(C)S(=O)(=O)c4ccc(C(C)(C)C)cc4)c3)cc2s1 [Example 223]
Hey, quick one: sort these by IC50, largest value first please. The response must list the labels following the requested ordering.
1, 2, 3
(1: 1.56 µM, 2: 0.191 µM, 3: 0.0535 µM)

(A) CC(=O)Nc1nc2ccc(-c3ccnc(OCc4ccncc4)n3)cc2s1 [Example 17]
(B) CC(=O)Nc1nc2ccc(-c3cnc(Cl)c(F)c3)cc2s1 [Example 238]
(C) CC(=O)Nc1nc2ccc(-c3cnc(Cl)c(NS(=O)(=O)N4CCCCC4)c3)cc2s1 [Example 316]
(D) CC(=O)Nc1nc2ccc(-c3cncc(NS(=O)(=O)c4cccc(F)c4)c3)cc2s1 [Example 199]
# rank_down: sort by IC50, max first Form entry: labels listed in requested order.
A, B, C, D

###

- TESTED ON: PI3K α (Homo sapiens, UniProt P42336)
- Construct: Full length p110 subunits of PI3K α, β and δ, N-terminally labeled with polyHis tag; polyHis (N)
- ASSAY METHOD TEXT: In vitro PI3 kinase enzyme assay (alpha), ATP loss, bioluminescence;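 also: purified p110α/p85 heterodimer acting on PtdIns(4,5)P2 at room temperature, remaining ATP read by luminescence, inhibition scaled between compound-free wells with and without enzyme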
- MEASUREMENT SETUP: read-out: PI3Kα ATP loss IC50
pIC50: −log10 of the molar value.
RESULT TYPE: pIC50

These solved cases illustrate the format of a correct answer.
- COMPOUND: "CC(=O)Nc1nc2ccc(-c3cncc(OCCN4CCCCC4)c3)cc2s1 [Example 233]"
  ASSAY RESULT: 5.38
- COMPOUND: "CC(=O)Nc1nc2ccc(-c3cc(OC(C)C#N)cnc3Cl)cc2s1 (centres unmarked) [Example 291]"
  ASSAY RESULT: 6.01
- COMPOUND: "CC(=O)Nc1nc2ccc(-c3ccnc(N(C)S(=O)(=O)c4ccc(C)cc4)c3)cc2s1 [Example 215]"
  ASSAY RESULT: 6.36
- COMPOUND: "Nc1nc2ccc(-c3nnc(NS(=O)(=O)c4ccc(F)cc4)o3)cc2s1 [Example 168]"
  ASSAY RESULT: 6.18
- COMPOUND: "CC(=O)Nc1nc2ccc(-c3ccnc(NS(=O)(=O)c4ccc(C)cc4)c3)cc2s1 [Example 216]"
  ASSAY RESULT: 7.45

(I) CC(=O)Nc1nc2ccc(-c3cncc(NS(=O)(=O)c4ccc(Cl)c(Cl)c4)c3)cc2s1 [Example 200]
(II) CC(=O)Nc1nc2ccc(-c3cncc(Sc4ccccc4F)n3)cc2s1 [Example 130]
(III) CC(=O)Nc1nc2ccc(-c3ccnc(Sc4ccc(Br)cc4)n3)cc2s1 [Example 139]
Arrange by pIC50, high to low. The reply should contain the labels ordered as requested.
I, II, III
(I: 8.25, II: 7.41, III: 7.09)
